B1: RAB40B (parent)
chain: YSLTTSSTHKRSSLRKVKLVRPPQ

# Variants of: B1
# protocol_summary: protein stability index of a GFP-peptide fusion (GPS, HEK-293T) (PSI 1-6); higher = more stable;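 further: lentivirally expressed fusions sorted by FACS into six bins by GFP to DsRed ratio, PSI derived from sequencing read proportions per bin multiplied by bin number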
# assay_conditions: c terminus: a fixed tail appended
Assign class by protein stability index: not lower than 3 means 1; lower than 3 means -1.

Worked cases, answers included:
- mutant_designation: "S13T"
  group: -1
- mutant_designation: "R21P"
  group: -1
- mutant_designation: "Y1N"
  group: 1

Proceed to the following item.
Does the reported protein stability index for `R21D` fall at or above the 3 mark?
1

Source: the supplement of paper PMC10567573
